Test system: Human immunodeficiency virus 2
methodNotes: Concentration required to inhibit the viral (HIV-2 ROD) cytopathic effect by 50% in MT-4 cells.
Type: functional, organism-based, MT4
conditionContext: Human immunodeficiency virus 2, MT4
pIC50: −log10 of the molar value.
valueKind: pIC50

{"molecule": "COc1ccc(-c2c(C)nc(S)n2Nc2cccc(Cl)c2)cc1", "observedMeasurement": "< 4.41"}
{"molecule": "Cc1ncn(Nc2ccccc2)c1-c1ccccc1", "observedMeasurement": "< 4.28"}
{"molecule": "CC1N=C(S)N(Nc2cccc(Cl)c2)C1c1cccc(C(=O)O)c1 (centres undefined)", "observedMeasurement": "< 3.92"}
{"molecule": "Cc1nc(S)n(Nc2ccc(Cl)cc2)c1-c1ccccc1", "observedMeasurement": "< 3.87"}
{"molecule": "CC1N=C(S)N(Nc2cccc(Br)c2)C1c1ccccc1 (centres undefined)", "observedMeasurement": "< 4.35"}
{"molecule": "Cc1cccc(NN2C(S)=NC(C(C)C)C2c2ccccc2)c1 (centres undefined)", "observedMeasurement": "< 4.37"}
{"molecule": "Cc1nc(S)n(Nc2cccc(Cl)c2)c1-c1ccc(Cl)cc1", "observedMeasurement": "< 4.39"}
{"molecule": "Cc1cccc(NN2C(S)=NC(C)C2C)c1 (centres undefined)", "observedMeasurement": "< 3.44"}
{"molecule": "COC(=O)c1cccc(-c2c(C)ncn2Nc2cccc(Cl)c2)c1", "observedMeasurement": "< 4.48"}
